- SYSTEM UNDER TEST: Leucine aminopeptidase (Plasmodium falciparum (isolate 3D7)) (UniProt Q8IL11)
- Sequence (Q8IL11 whole entry, looked up): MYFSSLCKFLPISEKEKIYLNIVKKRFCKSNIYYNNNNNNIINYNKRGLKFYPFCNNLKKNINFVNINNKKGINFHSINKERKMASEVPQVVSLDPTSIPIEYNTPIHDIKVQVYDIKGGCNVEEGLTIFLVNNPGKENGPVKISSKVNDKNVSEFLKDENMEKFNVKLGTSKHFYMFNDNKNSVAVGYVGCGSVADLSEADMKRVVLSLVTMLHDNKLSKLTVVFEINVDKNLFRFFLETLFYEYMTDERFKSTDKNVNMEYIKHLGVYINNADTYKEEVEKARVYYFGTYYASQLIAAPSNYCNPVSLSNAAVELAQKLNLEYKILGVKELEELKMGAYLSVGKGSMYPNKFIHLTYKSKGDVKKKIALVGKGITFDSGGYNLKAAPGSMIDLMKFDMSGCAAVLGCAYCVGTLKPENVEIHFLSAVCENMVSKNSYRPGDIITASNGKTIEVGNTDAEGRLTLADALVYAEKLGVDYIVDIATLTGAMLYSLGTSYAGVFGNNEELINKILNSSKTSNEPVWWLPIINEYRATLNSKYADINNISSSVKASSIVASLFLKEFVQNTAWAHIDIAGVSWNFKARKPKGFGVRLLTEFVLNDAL
- EXPERIMENT: P. falciparum M17LAP inhibitors, primary screen, biochemical, fluorogenic H-Leu-NHMec substrate, 1536-well (AID 1619);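 further: plate controls were full reaction with DMSO carrier for no effect and no enzyme background for full effect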
- EXPERIMENTAL CONDITIONS: recombinant M17LAP, H-Leu-NHMec fluorogenic kinetic assay; at 30 µM; hits give high values
In all, about 220,000 compounds went through this assay and about 830 (0.38%) were called active. Not all results are given here. Results with a measured potency or affinity are listed apart.
PARAMETER MEASURED: inhibition (%)

In [3]: df
Out[3]:
                              line_notation                         system_under_test  parameter_measured  unit_of_measurement  data_value
0             Cc1[nH]nc(N)c1N=Nc1ccc(Br)cc1  Leucine aminopeptidase (Plasmodium falciparum (isolate 3D7)) (UniProt Q8IL11)          inhibition                    %       -1.99
1    Cc1[nH]n(C(C)(C)C)c(=O)c1Sc1ccc(Cl)cc1  Leucine aminopeptidase (Plasmodium falciparum (isolate 3D7)) (UniProt Q8IL11)          inhibition                    %       -0.55
2  CCOc1ccc(NS(=O)(=O)c2ccc(NC(=O)[C@@H]3CCCC[C@@H]3C(=O)O)cc2)cc1  Leucine aminopeptidase (Plasmodium falciparum (isolate 3D7)) (UniProt Q8IL11)          inhibition                    %        42.4
3   O=C(CSc1nc2ccccc2[nH]1)Nc1ccc2c(c1)CCC2  Leucine aminopeptidase (Plasmodium falciparum (isolate 3D7)) (UniProt Q8IL11)          inhibition                    %        1.81
4  CC(=O)N1CCc2cc(C(=O)CN3CCN(c4ccccn4)CC3)ccc21  Leucine aminopeptidase (Plasmodium falciparum (isolate 3D7)) (UniProt Q8IL11)          inhibition                    %        8.66
5   CN(Cc1cc2ccccc2[nH]c1=O)C(=O)COc1ccccc1  Leucine aminopeptidase (Plasmodium falciparum (isolate 3D7)) (UniProt Q8IL11)          inhibition                    %       -2.37
6    CNC(=O)c1sccc1S(=O)(=O)Cc1c(Cl)cccc1Cl  Leucine aminopeptidase (Plasmodium falciparum (isolate 3D7)) (UniProt Q8IL11)          inhibition                    %        0.44
